SYSTEM UNDER TEST: T1, hIL-4Rα on cells (human, UniProt P24394 26-825)
T1 sequence: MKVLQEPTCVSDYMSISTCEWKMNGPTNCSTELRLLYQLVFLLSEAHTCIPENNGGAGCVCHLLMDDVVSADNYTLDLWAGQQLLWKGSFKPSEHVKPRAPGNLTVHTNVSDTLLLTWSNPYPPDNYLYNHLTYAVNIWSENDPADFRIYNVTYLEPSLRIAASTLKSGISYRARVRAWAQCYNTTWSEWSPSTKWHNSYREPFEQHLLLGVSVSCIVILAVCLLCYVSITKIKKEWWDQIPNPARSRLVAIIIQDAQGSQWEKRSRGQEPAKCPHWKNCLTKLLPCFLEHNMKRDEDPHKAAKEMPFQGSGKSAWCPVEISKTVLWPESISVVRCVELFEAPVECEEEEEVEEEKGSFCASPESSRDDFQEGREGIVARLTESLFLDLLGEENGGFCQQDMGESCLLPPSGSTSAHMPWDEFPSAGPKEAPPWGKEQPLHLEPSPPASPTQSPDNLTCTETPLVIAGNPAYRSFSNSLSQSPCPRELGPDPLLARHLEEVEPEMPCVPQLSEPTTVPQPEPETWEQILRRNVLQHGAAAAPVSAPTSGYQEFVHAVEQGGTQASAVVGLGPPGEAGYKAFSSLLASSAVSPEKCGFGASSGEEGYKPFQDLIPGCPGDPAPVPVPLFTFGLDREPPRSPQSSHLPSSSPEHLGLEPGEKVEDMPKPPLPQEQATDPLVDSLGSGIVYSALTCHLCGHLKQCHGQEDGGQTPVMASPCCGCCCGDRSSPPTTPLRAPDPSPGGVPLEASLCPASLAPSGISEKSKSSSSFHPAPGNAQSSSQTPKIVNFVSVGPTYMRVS
RUN DESCRIPTION: cell-based or functional assay
MEASURED PARAMETER: Relative Inhibition of IL-4 induced pSTAT6 IC50

The following binders have reported results that may help.
Construct 40 (mAb476) (antibody, IgG4, V domains shown, VH/VL only) VH: EVQLVESGGGLEQPGGSLRLSCAGSGFTFRDFAMTWVRQAPGKGLEWVSSVSGDGGNTYYADSVKGRFTISRDNSKNTLYLQMNSLRAEDTAVYYCAKDRLSKTIRPRYYGLDVWGQGTTVTVSS VL: DIVMTQSPLSLPVTPGEPASISCRSSQSVLYSIGYNYVDWYLQKSGQSPQLLIYLGNKRASGVPDRFSGSGSGTDFTLKISRVEAEDVGFYYCMQAYQSPYVFGQGTKLEIK; 0.633 relative to dupilumab
Construct 6 (mAb415) (antibody, IgG4, V domains shown, VH/VL only) VH: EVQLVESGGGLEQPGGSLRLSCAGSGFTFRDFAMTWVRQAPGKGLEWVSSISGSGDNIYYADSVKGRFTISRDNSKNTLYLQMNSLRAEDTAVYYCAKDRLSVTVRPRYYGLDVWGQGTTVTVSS VL: DIVMTQSPLSLPVTPGEPASISCRSSQGLLYSIGYNYVDWYLQKSGQSPQLLIYLGNKRASGVPDRFSGSGSGTDFTLKISRVEAEDVGFYYCMQSLQTPYTFGQGTKLEIK; 0.729 relative to dupilumab
Construct 37 (mAb470) (antibody, IgG4, V domains shown, VH/VL only) VH: EVQLVESGGGLEQPGGSLRLSCAGSGFTFRTYAMTWVRQAPGKGLEWVSSISGGGGNTYYADSVKGRFTISRDNSKNTLYLQMNSLRAEDTAVYYCAKDRLSVTVRPRYYGLDVWGQGTTVTVSS VL: DIVMTQSPLSLPVTPGEPASISCRASQSLLYSVGYNYVDWYLQKSGQSPQLLIYLGNNRASGVPDRFSGSGSGTDFTLKISRVEAEDVGFYYCMQSLTSPYTFGQGTKLEIK; 0.713 relative to dupilumab

Next binder, Relative Inhibition of IL-4 induced pSTAT6 IC50 to be filled in.
Q: Requested field: Relative Inhibition of IL-4 induced pSTAT6 IC50. Item: Construct 17 (mAb425) (antibody, IgG4, V domains shown, VH/VL only) VH: EVQLVESGGGLEQPGGSLRLSCAGSGFTFRDFAMTWVRQAPGKGLEWVSSISGSGSSTYYADSVKGRFTISRDNSKNTLYLQMNSLRAEDTAVYYCAKDRLSVTVRPRYYGLDVWGQGTTVTVSS VL: DIVMTQSPLSLPVTPGEPASISCTASQSLLYSIGYNYVDWYLQKSGQSPQLLIYLGSKRASGVPDRFSGSGSGTDFTLKISRVEAEDVGFYYCMQAYNSPYTFGQGTKLEIK
A: 0.876 relative to dupilumab
